Test system: MCF7
Assay: NCI tumour cell line growth inhibition, 48 h
The source made the active and inactive calls. Cut-off read from the data, not from the text of the source: active = GI50 up to about 1.1 µM and inactive = higher.
experimental_endpoint: GI50

Completed entries (count: 6):
* CC(=O)OCC1OC(n2cc(F)c(=O)[nH]c2=O)C(N)C(OC(C)=O)C1OC(C)=O (centres undefined) | > 100 µM (inactive)
* Cc1nc(Nc2nc3ccccc3[nH]2)[nH]c(=O)c1CCO | > 100 µM (inactive)
* Cn1c2c3ccccc3nc-2c(O)c2ccccc21 [HYDROXYCRYPTOLEPINE] | > 100 µM (inactive)
* COc1ccc2[nH]c3c(c2c1)CCn1c-3nc2ccccc2c1=O | > 25 µM (inactive)
* COC1C(O)CC(OC2C(C)OC(Oc3cc(O)c4c(O)c5c(cc4c3)C[C@@H]([C@H](OC)C(=O)[C@@H](O)[C@@H](C)O)[C@H](OC3CC(OC4CC(OC6CC(C)(O)C(O)C(C)O6)C(O)C(C)O4)C(O)C(C)O3)C5=O)CC2OC(C)=O)OC1C (some centres undefined) | 24.4 µM (inactive)
* Cc1c(N2C(=O)CS(=O)(=O)C2c2cccc(Oc3ccccc3)c2)c(=O)n(-c2ccccc2)n1C (centres undefined) | 36.9 µM (inactive)

According to the records, this compound "O/N=N/c1ccc(Sc2ccc(/N=N/O)cn2)nc1" displays GI50 of > 100 µM (inactive)

According to the records, this compound "CN(CCCNC(=O)c1nn(C)c2c1Cc1ccccc1-2)CCCNC(=O)c1nn(C)c2c1Cc1ccccc1-2" displays GI50 of 15 µM (inactive)

According to the records, this compound "C(=C\c1cc[n+](CCc2ccccc2)cc1)/c1ccccc1" displays GI50 of 9.16 µM (inactive)

###

Test system: COLO 205
Assay: NCI tumour cell line growth inhibition, 48 h
Calls of active or inactive are those of the source. Cut-off read from the data, not from the text of the source: active = GI50 up to about 1.1 µM and inactive = higher.
Please answer using one outcome listed in class 1 = active, class 0 = inactive

Examples with answers:
* Cc1cccc(/N=N/c2ccc(/N=N/c3c(O)ccc4ccccc34)cc2C)c1 | class 0
* CC1OC(CC2C=CCc3c(O)c4c(c(O)c32)C(=O)c2ccccc2C4=O)CC(NC(=O)C(F)(F)F)C1O (stereo not drawn) | class 0
* Cc1nc2sccn2c1C(=O)OCCOCCOCCOCCOC(=O)c1c(C)nc2sccn12 | class 0
* CCCCC/C=C1\CCC(CN2CCOCC2)C1=O (stereo not drawn) | class 0
* Nc1c(S(=O)(=O)O)cc(Nc2cccc(S(=O)(=O)/C=C/S(=O)(=O)O)c2)c2c1C(=O)c1ccccc1C2=O | class 0

INPUT: Which outcome did this test record for the compound "N#C/C(=C1C=C(Br)/C(=N\O)C=C\1Cl)c1cccc2ccccc12" ?
OUTPUT: class 0

INPUT: Which outcome did this test record for the compound "CCCCCCCCCC(=O)N[C@@H](c1ccco1)[C@@H](O)C(=O)O[C@H]1C[C@@]2(O)[C@@H](OC(=O)c3ccccc3)[C@@H]3[C@]4(OC(C)=O)CO[C@@H]4C[C@H](O)[C@@]3(C)C(=O)[C@H](OC(C)=O)C(=C1C)C2(C)C" ?
OUTPUT: class 1

INPUT: Which outcome did this test record for the compound CSc1cnc2ccccc2c1SC1CN(Cc2ccccc2)c2ccccc2C1=O (stereo not drawn) ?
OUTPUT: class 0

###

Here, each record is paired with measured GI50 data.
Tested on: SK-MEL-28
Assay: NCI tumour cell line growth inhibition, 48 h
Calls of active or inactive are those of the source. Rule as the data show it: active = GI50 up to about 1.1 µM and inactive = higher.

Completed entries (count: 4):
* COC1CCCCN1C(=O)c1ccccc1 (stereo not given) | > 25.3 µM (inactive)
* C#CC1(O)CCC2C3CCc4cc(Oc5nc(F)nc(-c6c7ccccc7c7sc8ccccc8n67)n5)ccc4C3CC[C@@]21C (stereo not given in full) | > 100 µM (inactive)
* COC(=O)C1(Cc2ccc3c(c2)CCC3)Cc2cc3c(cc2C1)CCC3 | 60.1 µM (inactive)
* O=C(Nc1ccccc1)c1cc(S(=O)(=O)N2CCNNC2=O)c(S)cc1Cl | > 100 µM (inactive)

Then there is this compound:
Short answer on SK-MEL-28 for CC1(C)CC2=NOS3=C2C(=NO3)C1c1ccccn1 (stereo not given) , GI50: > 100 µM (inactive)
